Details: in mesitylene, 318.15 K
readout.label: solubility (mole fraction)
Form: value (number only, do not type unit).

Documented solubility (mole fraction) of CC(C)(C)c1ccc2c(c1)C(=O)c1ccccc1C2=O : 0.386

---

Conditions: in 2,6-dimethyl-4-heptanol, 318.15 K
readout.label: solubility (mole fraction)
Form: value (number only, do not type unit).

Documented solubility (mole fraction) of CC(C)(C)c1ccc2c(c1)C(=O)c1ccccc1C2=O : 0.0635

---

Settings: in 2,6-dimethyl-4-heptanol, 313.15 K
readout.label: solubility (mole fraction)

Documented solubility (mole fraction) of CC(C)(C)c1ccc2c(c1)C(=O)c1ccccc1C2=O : 0.0461

---

Details: in 2,6-dimethyl-4-heptanol, 323.15 K
readout.label: solubility (mole fraction)
Form: value (number only, do not type unit).

Documented solubility (mole fraction) of CC(C)(C)c1ccc2c(c1)C(=O)c1ccccc1C2=O : 0.0998

---

Conditions: in mesitylene, 323.15 K
readout.label: solubility (mole fraction)

Documented solubility (mole fraction) of CC(C)(C)c1ccc2c(c1)C(=O)c1ccccc1C2=O : 0.443

---

Conditions: in 2,6-dimethyl-4-heptanol, 303.15 K
readout.label: solubility (mole fraction)
Form: value (number only, do not type unit).

Documented solubility (mole fraction) of CC(C)(C)c1ccc2c(c1)C(=O)c1ccccc1C2=O : 0.0245

---

Conditions: in trioctyl phosphate, 308.15 K
readout.label: solubility (mole fraction)
Form: value (number only, do not type unit).

Documented solubility (mole fraction) of CC(C)(C)c1ccc2c(c1)C(=O)c1ccccc1C2=O : 0.185

---

Conditions: in 2,6-dimethyl-4-heptanol, 333.15 K
readout.label: solubility (mole fraction)
Form: value (number only, do not type unit).

Documented solubility (mole fraction) of CC(C)(C)c1ccc2c(c1)C(=O)c1ccccc1C2=O : 0.21
